TESTED_SYSTEM: HDAC1 (Homo sapiens, UniProt Q13547)
Construct: HDAC1 (full length, C-terminal His tag, C-terminal FLAG tag, BPS Bioscience, cat. #: 50051); FLAG (C); purchased BPS Bioscience 50051
Sequence (Q13547 whole entry): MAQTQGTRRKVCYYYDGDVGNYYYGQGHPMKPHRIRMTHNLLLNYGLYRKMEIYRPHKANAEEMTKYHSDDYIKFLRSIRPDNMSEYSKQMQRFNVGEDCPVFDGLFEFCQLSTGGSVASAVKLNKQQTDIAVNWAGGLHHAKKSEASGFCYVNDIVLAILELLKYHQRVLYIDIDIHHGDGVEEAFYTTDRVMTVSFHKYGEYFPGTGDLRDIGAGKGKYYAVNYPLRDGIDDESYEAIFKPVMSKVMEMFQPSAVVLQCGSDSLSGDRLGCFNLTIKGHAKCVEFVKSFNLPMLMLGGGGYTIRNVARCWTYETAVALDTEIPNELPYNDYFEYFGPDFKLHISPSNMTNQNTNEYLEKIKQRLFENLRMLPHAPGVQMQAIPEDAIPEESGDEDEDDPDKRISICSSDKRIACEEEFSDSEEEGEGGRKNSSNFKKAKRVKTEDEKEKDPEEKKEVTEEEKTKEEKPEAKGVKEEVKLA
METHOD: Recombinant HDAC µSPOT microarray binding assay;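 also: relative spot intensity from the six enzyme-concentration slides imaged together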;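 also: slides with spotted peptides incubated with six HDAC concentrations in HEPES buffer pH 7.4, spot intensities fitted by four-parameter logistic, EC50 as enzyme concentration giving half-maximal binding signal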
CONDITIONS_USED: µSPOT microarray, recombinant HDAC1, Fig. 3; X = Asuha; fitted bottom plateau of the binding curve
MEASURE: Bottom (dose-response fit)

H2A 19-34 (SRAGLQFPVGRVHRLL; UniProt P04908 20-35, looked up, fragment); 0.02
H2B 61-76 (IMNSFVNDIFERIAGE; UniProt P62807 62-77, looked up, fragment); 0.03
H2B 91-106 (SREIQTAVRLLLPGEL; UniProt P62807 92-107, looked up, fragment); 0.04
H2B 67-82 (NDIFERIAGEASRLAH; UniProt P06899 68-83, looked up, fragment); 0.04
H2A 16-31 (TRSSRAGLQFPVGRVH; microarray-immobilized; UniProt P0C0S8 17-32, looked up, fragment); 0.03
H2A 40-55 (AERVGAGAPVYLAAVL; UniProt P0C0S8 41-56, looked up, fragment); 0.02
